Just for reference, paper PMC2807407 is where these values come from.

test_target: T1, Dsk2-UBL (Saccharomyces cerevisiae, UniProt P48510 1-75)
T1 sequence: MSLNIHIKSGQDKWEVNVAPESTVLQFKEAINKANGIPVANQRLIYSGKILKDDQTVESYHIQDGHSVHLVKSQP
test_details: SPR
outcome_measure: pKd
pKd (log units): -log10 of the concentration in mol/L.

What the record says about Rpn10 C-terminal construct Rpn10_(204-268) (domain or fragment, Saccharomyces cerevisiae, UniProt P38886 204-268, looked up) GSGGDSDANGTFMDFGVDPSMDPELAMALRLSMEEEQQRQERLRQQQQQQDQPEQSEYPEQHQDK : pKd is 5.05
